tgt: CAMKK2 (Homo sapiens)
Construct: made in house
assay.summary: CAMKK2 enzyme assay (radiometric, CaMKKtide)
Assay type: biochemical
experimental.parameters: 0.1 µM inhibitor; read-out: PoC (activity remaining)
# remaining activity at 0.1 µM per entry

- compound.structure: "C[C@@H](Oc1cc(-n2cnc3ccc(CN4CCN(C)CC4)cc32)sc1C(N)=O)c1ccccc1C(F)(F)F"
  remaining activity at 0.1 µM: "96%"
- compound.structure: "O=C(NCCCNc1nc(Nc2cccc(NC(=O)N3CCCC3)c2)ncc1I)c1cccs1"
  remaining activity at 0.1 µM: "80%"
- compound.structure: "CCN1CCN(c2ccc(Nc3cc(N(C)C(=O)Nc4c(Cl)c(OC)cc(OC)c4Cl)ncn3)cc2)CC1"
  remaining activity at 0.1 µM: "99%"

Asked: Value wanted: remaining activity at 0.1 µM (CAMKK2 (Homo sapiens)) of entry CC(C)[C@H](CO)Nc1nc(Nc2cc(N)cc(Cl)c2)c2ncn(C(C)C)c2n1
Given back: 80%

* * *

tgt: CAMKK2 (Homo sapiens)
Construct: made in house
assay.summary: CAMKK2 enzyme assay (radiometric, CaMKKtide)
Type: biochemical
experimental.parameters: 0.01 µM inhibitor; read-out: PoC (activity remaining)
experimental.readout: remaining activity at 0.01 µM

- compound.structure: "Cc1cc2c(F)c(Oc3ncnn4cc(OC[C@@H](C)O)c(C)c34)ccc2[nH]1"
  experimental.readout: "remaining activity at 0.01 µM"
  readout.value: "101%"
- compound.structure: "O=C1NC(=O)/C(=C/c2ccc3nccc(-c4ccncc4)c3c2)S1"
  experimental.readout: "remaining activity at 0.01 µM"
  readout.value: "92%"
- compound.structure: "O=C(Nc1nc2cccc(-c3ccc(CN4CCS(=O)(=O)CC4)cc3)n2n1)C1CC1"
  experimental.readout: "remaining activity at 0.01 µM"
  readout.value: "96%"
- compound.structure: "COCCOc1ccc2c(c1)ncn2-c1ccc2cccc(N3CCC(N)CC3)c2n1"
  experimental.readout: "remaining activity at 0.01 µM"
  readout.value: "88%"
- compound.structure: "CCc1nc(C(N)=O)c(Nc2ccc(N3CCC(N4CCN(C)CC4)CC3)c(OC)c2)nc1NC1CCOCC1"
  experimental.readout: "remaining activity at 0.01 µM"
  readout.value: "84%"
- compound.structure: "Cc1[nH]c(/C=C2\\C(=O)Nc3ccc(S(=O)(=O)Cc4c(Cl)cccc4Cl)cc32)c(C)c1C(=O)N1CCC[C@@H]1CN1CCCC1"
  experimental.readout: "remaining activity at 0.01 µM"
  readout.value: "109%"
- compound.structure: "C[C@@H](Oc1cc(-n2cnc3ccc(CN4CCN(C)CC4)cc32)sc1C(N)=O)c1ccccc1C(F)(F)F"
  experimental.readout: "remaining activity at 0.01 µM"
  readout.value: "95%"

Would you kindly look at the next entry?
Asked: Value wanted: remaining activity at 0.01 µM (CAMKK2 (Homo sapiens)) of entry O=C(O)c1ccc2c3c1cccc3c(=O)n1c3ccccc3nc21
Given back: 63%

* * *

tgt: CAMKK2 (Homo sapiens, UniProt Q96RR4)
Construct: made in house
Sequence (Q96RR4 whole entry): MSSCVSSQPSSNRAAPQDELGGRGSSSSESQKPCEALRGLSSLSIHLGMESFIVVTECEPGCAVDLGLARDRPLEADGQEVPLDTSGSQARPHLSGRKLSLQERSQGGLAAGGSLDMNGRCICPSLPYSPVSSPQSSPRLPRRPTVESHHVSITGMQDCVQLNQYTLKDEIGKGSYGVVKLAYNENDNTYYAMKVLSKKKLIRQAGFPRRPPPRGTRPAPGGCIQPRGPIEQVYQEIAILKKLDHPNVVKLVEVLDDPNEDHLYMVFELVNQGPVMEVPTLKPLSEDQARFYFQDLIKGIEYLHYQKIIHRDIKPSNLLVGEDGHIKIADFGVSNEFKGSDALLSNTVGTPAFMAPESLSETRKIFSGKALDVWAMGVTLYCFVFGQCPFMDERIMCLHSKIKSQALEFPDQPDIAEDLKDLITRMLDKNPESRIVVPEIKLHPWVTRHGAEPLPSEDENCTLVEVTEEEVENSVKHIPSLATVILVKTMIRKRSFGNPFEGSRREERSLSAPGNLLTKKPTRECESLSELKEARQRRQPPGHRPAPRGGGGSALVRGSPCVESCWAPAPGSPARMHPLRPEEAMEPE
assay.summary: CAMKK2 enzyme assay (radiometric, CaMKKtide)
Format: biochemical
experimental.parameters: read-out: PoC (activity remaining)
# remaining activity at 1 µM per entry
Just the number in %, nothing appended.

- compound.structure: "Nc1nc(Nc2ccc(S(N)(=O)=O)cc2)nn1C(=S)Nc1c(F)cccc1F"
  remaining activity at 1 µM / %: 3
- compound.structure: "CO[C@@H]1[C@H](N(C)C(=O)c2ccccc2)C[C@H]2O[C@]1(C)n1c3ccccc3c3c4c(c5c6ccccc6n2c5c31)C(=O)NC4"
  remaining activity at 1 µM / %: 38
- compound.structure: "C[C@]12O[C@H](C[C@]1(O)CO)n1c3ccccc3c3c4c(c5c6ccccc6n2c5c31)CNC4=O"
  remaining activity at 1 µM / %: 3

Would you kindly look at the next entry?
Asked: # query: remaining activity at 1 µM of entry COc1cc(N2CCC(N3CCN(C)CC3)CC2)ccc1Nc1ncc(Cl)c(Nc2ccccc2P(C)(C)=O)n1
Given back: 2

* * *

tgt: CAMKK2 (Homo sapiens, UniProt Q96RR4)
Construct: made in house
assay.summary: CAMKK2 enzyme assay (radiometric, CaMKKtide)
Format: biochemical
experimental.parameters: 0.1 µM inhibitor; read-out: PoC (activity remaining)
# remaining activity at 0.1 µM per entry
Just the number in %, nothing appended.

Solved entries (count: 3):
- compound: "Cn1c2ccccc2c2c3c(c4c5ccccc5n(CCC#N)c4c21)CNC3=O [Go6976]"
  experimental.readout: "remaining activity at 0.1 µM"
  readout.value: 92
- compound: "O=C1NC(=O)/C(=C/c2ccc3nccc(-c4ccncc4)c3c2)S1 [GSK1059615]"
  experimental.readout: "remaining activity at 0.1 µM"
  readout.value: 81
- compound: "CN1CC[C@H](c2c(O)cc(O)c3c(=O)cc(-c4ccccc4Cl)oc23)[C@H](O)C1 [Alvocidib]"
  experimental.readout: "remaining activity at 0.1 µM"
  readout.value: 62

Would you kindly look at the next entry?
Asked: # query: remaining activity at 0.1 µM of entry Cc1nc(Nc2[nH]nc3c2CN(C(=O)N[C@H](CN(C)C)c2ccccc2)C3(C)C)c2sccc2n1 [PF3758309]
Given back: 78

* * *

tgt: CAMKK2 (Homo sapiens, UniProt Q96RR4)
Construct: made in house
assay.summary: CAMKK2 enzyme assay (radiometric, CaMKKtide)
Assay type: biochemical
experimental.parameters: read-out: PoC (activity remaining)
# remaining activity at 0.1 µM per entry
Just the number in %, nothing appended.

Solved entries (count: 2):
- compound.structure: "COc1cc(N2CCC(N3CCN(C)CC3)CC2)ccc1Nc1ncc(Cl)c(Nc2ccccc2P(C)(C)=O)n1"
  tgt: "CAMKK2 (Homo sapiens, UniProt Q96RR4)"
  readout.value: 20
- compound.structure: "C[C@]12O[C@H](C[C@]1(O)CO)n1c3ccccc3c3c4c(c5c6ccccc6n2c5c31)CNC4=O"
  tgt: "CAMKK2 (Homo sapiens, UniProt Q96RR4)"
  readout.value: 33

Asked: # query: remaining activity at 0.1 µM of entry Nc1nc(Nc2ccc(S(N)(=O)=O)cc2)nn1C(=S)Nc1c(F)cccc1F
Given back: 17

Asked: # query: remaining activity at 0.1 µM of entry CO[C@@H]1[C@H](N(C)C(=O)c2ccccc2)C[C@H]2O[C@]1(C)n1c3ccccc3c3c4c(c5c6ccccc6n2c5c31)C(=O)NC4
Given back: 82

* * *

# PoC (activity remaining) per entry
tgt: CAMKK2 (Homo sapiens)
Construct: made in house
assay.summary: CAMKK2 enzyme assay (radiometric, CaMKKtide)
Format: biochemical
experimental.parameters: 0.01 µM inhibitor
Just the number in %, nothing appended.

Solved entries (count: 5):
- compound: "Cc1ncc(CCCN(C)C)cc1Nc1ncc2c(n1)-c1ccc(C(F)(F)F)cc1NC(=S)C2"
  unit.of.measure: "%"
  readout.value: 99
- compound: "CNC(=O)c1cc(Oc2ccc(NC(=O)Nc3cc(C(C)(C)C)nn3-c3ccc4ncccc4c3)c(F)c2)ccn1"
  unit.of.measure: "%"
  readout.value: 95
- compound: "COC(=O)[C@@]1(O)C[C@H]2O[C@]1(C)n1c3ccccc3c3c4c(c5c6ccccc6n2c5c31)C(=O)NC4 [K252a]"
  unit.of.measure: "%"
  readout.value: 99
- compound: "Cn1cc(C2=C(c3cn(CCCSC(=N)N)c4ccccc34)C(=O)NC2=O)c2ccccc21"
  unit.of.measure: "%"
  readout.value: 100
- compound: "O=C(NCCCNc1nc(Nc2cccc(CN3CCOCC3)c2)ncc1C1CC1)C1CCC1"
  unit.of.measure: "%"
  readout.value: 92

Asked: # query: PoC (activity remaining) of entry CNC(=O)c1ccccc1Nc1nc(Nc2ccc(N3CCOCC3)cc2OC)ncc1Cl
Given back: 104

Asked: # query: PoC (activity remaining) of entry COc1cc(N2CCC(N)CC2)ccc1Nc1ncc(Cl)c(-c2c[nH]c3ccccc23)n1
Given back: 103

Asked: # query: PoC (activity remaining) of entry O=C1NC(=NCc2cccs2)S/C1=C\c1ccc2ncccc2c1
Given back: 94

Asked: # query: PoC (activity remaining) of entry N#Cc1c(Oc2ccc(F)c(NC(=O)Cc3cccc(C(F)(F)F)c3)c2)ccc2nc(NC(=O)C3CC3)sc12
Given back: 92

Asked: # query: PoC (activity remaining) of entry O=C(Nc1cccc(Nc2ncc(Br)c(NCCc3cnc[nH]3)n2)c1)N1CCCC1
Given back: 100

Asked: # query: PoC (activity remaining) of entry O=C1NC(=O)c2c1c1c3ccccc3n3c1c1c2c2ccccc2n1C1CCC3O1
Given back: 98

Asked: # query: PoC (activity remaining) of entry COc1cc(N2CCOCC2)ccc1Nc1ncc(F)c(Nc2ccccc2NS(C)(=O)=O)n1
Given back: 96

Asked: # query: PoC (activity remaining) of entry c1ccc2c(-c3cnn4cc(-c5ccc(N6CCNCC6)cc5)cnc34)ccnc2c1
Given back: 68

Asked: # query: PoC (activity remaining) of entry CC(=O)NCC(=O)N1[C@@H]2CC[C@H]1c1ccc(Nc3ncc(C(F)(F)F)c(NC4CCC4)n3)cc12
Given back: 92

Asked: # query: PoC (activity remaining) of entry O=C1Nc2cc(Br)ccc2/C1=C1/Nc2ccccc2/C1=N\O
Given back: 102
